Test system: PXR:RXRa (NR concentration 270 nM, RXRa partner concentration 90 nM)
Experiment: PBM binding z-score (relative to random genomic background probes); higher = stronger binding; sequences stand for … in GC…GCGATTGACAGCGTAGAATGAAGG
Recorded PBM binding z-score determines the group label, using low (below 2), moderate (2 to below 4), high (4 or more)

Would you please look over these solved cases?
>>> df
                       entry_sequence  answer_label
0  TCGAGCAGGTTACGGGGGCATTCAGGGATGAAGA      moderate
1  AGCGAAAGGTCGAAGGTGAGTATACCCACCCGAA      moderate
2  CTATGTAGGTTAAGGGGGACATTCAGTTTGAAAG      moderate
3  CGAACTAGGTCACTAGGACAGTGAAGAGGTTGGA           low
4  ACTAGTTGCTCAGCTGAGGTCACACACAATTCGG          high

For the record `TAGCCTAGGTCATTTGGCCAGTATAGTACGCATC` , report the class its PBM binding z-score corresponds to.
low

* * *

Test system: RARb homodimer (NR concentration 270 nM)
Assay: PBM binding z-score (relative to random genomic background probes); higher = stronger binding; sequences stand for … in GC…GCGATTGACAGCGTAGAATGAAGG
Label scheme for PBM binding z-score: lower than 2 is NO, 2 and above is YES.

Would you please look over these solved cases?
                       entry_sequence  answer_label
0  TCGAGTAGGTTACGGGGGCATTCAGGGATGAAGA           YES
1  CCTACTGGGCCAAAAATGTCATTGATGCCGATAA            NO

Has `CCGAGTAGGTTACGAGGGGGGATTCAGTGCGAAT` a recorded PBM binding z-score greater than or equal to 2?
NO

Has `CCTACTGGGCCACGAAAGGGCATTGATTCAGTGA` a recorded PBM binding z-score greater than or equal to 2?
NO

Has `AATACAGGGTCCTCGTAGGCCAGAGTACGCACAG` a recorded PBM binding z-score greater than or equal to 2?
NO

* * *

Tested on: PPARa:RXRa (NR concentration 270 nM, RXRa partner concentration 90 nM)
Assay: PBM binding z-score (relative to random genomic background probes); higher = stronger binding; sequences stand for … in GC…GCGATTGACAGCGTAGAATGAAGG
measurement type: PBM binding z-score
# respond with the number and nothing more

See these solved cases before continuing.
>>> print(df.to_string())
                       entry_sequence                           subject_of_test  value_measured
0  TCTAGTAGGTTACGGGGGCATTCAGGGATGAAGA  PPARa:RXRa (NR concentration 270 nM, RXRa partner concentration 90 nM)            4.95
1  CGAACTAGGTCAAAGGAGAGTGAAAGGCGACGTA  PPARa:RXRa (NR concentration 270 nM, RXRa partner concentration 90 nM)            5.05
2  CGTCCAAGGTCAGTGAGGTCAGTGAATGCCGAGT  PPARa:RXRa (NR concentration 270 nM, RXRa partner concentration 90 nM)            4.72
3  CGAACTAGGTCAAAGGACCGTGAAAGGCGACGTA  PPARa:RXRa (NR concentration 270 nM, RXRa partner concentration 90 nM)            4.99
4  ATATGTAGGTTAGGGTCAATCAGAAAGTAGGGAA  PPARa:RXRa (NR concentration 270 nM, RXRa partner concentration 90 nM)            5.48
5  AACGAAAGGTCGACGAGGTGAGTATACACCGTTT  PPARa:RXRa (NR concentration 270 nM, RXRa partner concentration 90 nM)            4.82

// returns reported PBM binding z-score for input `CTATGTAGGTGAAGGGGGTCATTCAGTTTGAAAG`
6.36
